This listing pairs variants with measured protein stability index.
B1: ESRRG (parent)
chain: YSCPATNECEITKRRRKSCQACRF

- Variants of: B1
- ASSAY_INFO: protein stability index of a GFP-peptide fusion (GPS, HEK-293T) (PSI 1-6); higher = more stable;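 note: lentivirally expressed fusions sorted by FACS into six bins by GFP to DsRed ratio, PSI derived from sequencing read proportions per bin multiplied by bin number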
- CONDITION_CONTEXT: c terminus: a fixed tail appended
Could you respond with only the numeric value?

Examples with answers:
INSERT INTO assay_data (mutant_code, assay_result) VALUES
  ('A21Y', 3.16),
  ('I11Q', 3.51),
  ('E10C', 3.06);

Tell me measured protein stability index for `S18R` please.
3.8

Given `F24Y` , respond with its protein stability index.
3.53
